Values compiled from ChEMBL document CHEMBL2385040.

Tested on: MCF7
test: Antiproliferative activity against human MCF7 cells at 20 uM after 72 hrs by MTT assay relative to control
Assay type: functional, cell-based
assayContext: MCF7, 72 h
pIC50: −log10 of the molar value.
measureName: pIC50

[Q] I'd like to know its pIC50. The compound in question is `CN1CCN(C(=S)SCc2ccc3nc(N)nc(N)c3c2)CC1`
[A] < 4.70

----------
Test system: HT-29
test: cells
assayContext: Homo sapiens, HT-29, 72 h
Checkbox rule: IC50 lower than 4 µM = TRUE; IC50 not lower than 4 µM = FALSE.

[Q] A record lists `Nc1nc(N)c2cc(CSC(=S)N3CCN(c4ccccn4)CC3)ccc2n1` . Is its IC50 below 4 µM?
[A] FALSE

[Q] Entry to check: `Cc1ccc(N2CCN(C(=S)SCc3ccc4nc(N)nc(N)c4c3)CC2)c(C)c1`
[A] TRUE

[Q] Repeat for the following molecule: `Nc1nc(N)c2cc(CSC(=S)N3CCN(c4ncccn4)CC3)ccc2n1`
[A] FALSE

[Q] How about this molecule: `COc1ccc(N2CCN(C(=S)SCc3ccc4nc(N)nc(N)c4c3)CC2)cc1`
[A] TRUE

[Q] Try this molecule too: `CC(=O)c1ccc(N2CCN(C(=S)SCc3ccc4nc(N)nc(N)c4c3)CC2)cc1`
[A] TRUE

[Q] Please do the same for `Cc1ccc(N2CCN(C(=S)SCc3ccc4nc(N)nc(N)c4c3)CC2)cc1` as well.
[A] TRUE

[Q] Moving on to the next molecule: `Nc1nc(N)c2cc(CSC(=S)N3CCN(c4ccccc4[N+](=O)[O-])CC3)ccc2n1`
[A] FALSE

[Q] // query: `Cc1ccccc1N1CCN(C(=S)SCc2ccc3nc(N)nc(N)c3c2)CC1`
[A] TRUE

----------
System: HeLa
test: Antiproliferative activity against human HeLa cells after 72 hrs by MTT assay
Format: functional, cell-based
Output schema: class label derived from IC50. Mapping: group 1 = under 3 µM, group 2 = from 3 µM up to 5 µM, group 3 = 5 µM and over

| chemSmiles | testTarget | categoryLabel |
| --- | --- | --- |
| Nc1nc(N)c2cc(CSC(=S)N3CCN(c4ccc(F)cc4F)CC3)ccc2n1 | HeLa | group 2 |
| Nc1nc(N)c2cc(CSC(=S)N3CCN(C4CCCCC4)CC3)ccc2n1 | HeLa | group 3 |
| Cc1ccc(N2CCN(C(=S)SCc3ccc4nc(N)nc(N)c4c3)CC2)c(C)c1 | HeLa | group 2 |
| Nc1nc(N)c2cc(CSC(=S)N3CCN(c4ncccn4)CC3)ccc2n1 | HeLa | group 2 |
| Nc1nc(N)c2cc(CSC(=S)N3CCN(c4ccccc4)CC3)ccc2n1 | HeLa | group 1 |

[Q] Exam item: assign `Nc1nc(N)c2cc(CSC(=S)N3CCN(c4ccc(O)cc4)CC3)ccc2n1` to the correct category.
[A] group 3

[Q] Again, but for `Nc1nc(N)c2cc(CSC(=S)N3CCN(c4ccccc4Cl)CC3)ccc2n1`
[A] group 2

[Q] Similarly, `O=c1[nH]cc(F)c(=O)[nH]1` ?
[A] group 3

[Q] Lookup `Nc1nc(N)c2cc(CSC(=S)N3CCN(c4ccc(F)cc4)CC3)ccc2n1`
[A] group 1

[Q] Same lookup for `Cc1ccc(N2CCN(C(=S)SCc3ccc4nc(N)nc(N)c4c3)CC2)cc1` , please.
[A] group 1

[Q] Queued: `Nc1nc(N)c2cc(CSC(=S)N3CCN(c4ccccc4F)CC3)ccc2n1`
[A] group 3

[Q] // query: `COc1ccc(N2CCN(C(=S)SCc3ccc4nc(N)nc(N)c4c3)CC2)cc1`
[A] group 1

[Q] How about this compound: `Nc1nc(N)c2cc(CSC(=S)N3CCN(c4ccc([N+](=O)[O-])cc4)CC3)ccc2n1`
[A] group 1

[Q] Same thing, different compound: `Nc1nc(N)c2cc(CSC(=S)N3CCN(Cc4ccccc4)CC3)ccc2n1`
[A] group 3

[Q] How about this compound: `Nc1nc(N)c2cc(CSC(=S)N3CCN(c4ccc(Cl)cc4)CC3)ccc2n1`
[A] group 3

[Q] Next: `CC(=O)c1ccc(N2CCN(C(=S)SCc3ccc4nc(N)nc(N)c4c3)CC2)cc1`
[A] group 1

----------
Tested on: HT-29
test: cells
assayContext: Homo sapiens, HT-29, 72 h
Below, each of the compounds is paired with its reported IC50 value.
The reply should contain only the number, in µM.

Example compounds with recorded IC50:
| compound | IC50 [µM] |
| --- | --- |
| Nc1nc(N)c2cc(CSC(=S)N3CCN(c4ccccc4F)CC3)ccc2n1 | 5.42 |
| Nc1nc(N)c2cc(CSC(=S)N3CCN(c4ccc(Cl)cc4)CC3)ccc2n1 | 7.48 |
| Nc1nc(N)c2cc(CSC(=S)N3CCN(c4ccc(F)cc4)CC3)ccc2n1 | 2.05 |

[Q] Please look up its IC50: `Nc1nc(N)c2cc(CSC(=S)N3CCN(c4ccc(Cl)c(Cl)c4)CC3)ccc2n1`
[A] 3.48

[Q] Try `Nc1nc(N)c2cc(CSC(=S)N3CCN(c4ccccc4)CC3)ccc2n1` next.
[A] 2.76

[Q] Would you mind doing `Nc1nc(N)c2cc(CSC(=S)N3CCN(Cc4ccccc4)CC3)ccc2n1` as well?
[A] 8.49

[Q] What do we get for `Nc1nc(N)c2cc(CSC(=S)N3CCN(c4ccc([N+](=O)[O-])cc4)CC3)ccc2n1` ?
[A] 3.32

[Q] Ok, now O=c1[nH]cc(F)c(=O)[nH]1 [FLUOROURACIL]
[A] 24.5

[Q] `Nc1nc(N)c2cc(CSC(=S)N3CCN(c4ccc(F)cc4F)CC3)ccc2n1` , same question.
[A] 5.02

[Q] How about `Nc1nc(N)c2cc(CSC(=S)N3CCN(C4CCCCC4)CC3)ccc2n1` ?
[A] 4.05

----------
System: HT-29
test: Antiproliferative activity against human HT-29 cells at 20 uM after 72 hrs by MTT assay relative to control
Type: functional, cell-based
assayContext: HT-29, 72 h
pIC50: −log10 of the molar value.
measureName: pIC50

| chemSmiles | testTarget | measured |
| --- | --- | --- |
| Nc1nc(N)c2cc(CSC(=S)N3CCN(c4ccc(C(F)(F)F)cc4)CC3)ccc2n1 | HT-29 | < 4.70 |

[Q] What value of measured pIC50 is listed for `CN1CCN(C(=S)SCc2ccc3nc(N)nc(N)c3c2)CC1` ?
[A] < 4.70

[Q] Now consider `Nc1nc(N)c2cc(CSC(=S)N3CCN(c4ccc(O)cc4)CC3)ccc2n1` and answer again.
[A] < 4.70

----------
Consider the following compounds and their measured IC50 readings.
System: HeLa
test: Antiproliferative activity against human HeLa cells at 20 uM after 72 hrs by MTT assay relative to control
Assay type: functional, cell-based

| chemSmiles | testTarget | measured |
| --- | --- | --- |
| CN1CCN(C(=S)SCc2ccc3nc(N)nc(N)c3c2)CC1 | HeLa | > 20 µM |

Proceed to the following item.
[Q] Form entry - test system: HeLa; read-out: IC50; compound: `Nc1nc(N)c2cc(CSC(=S)N3CCN(c4ccc(C(F)(F)F)cc4)CC3)ccc2n1`
[A] > 20 µM

----------
System: HCT-116
test: Induction of DNA damage in human HCT116 cells assessed as formation of marker ser-139 phosphorylated H2AX nuclear foci after 2 hrs by immunofluorescence assay
Format: functional, cell-based
Calls of active or inactive are those of the source. The calls are words filed in the database; no cut-off is given here.
Respond with a class label; see active, inactive

| compound | categoryLabel |
| --- | --- |
| Nc1nc(N)c2cc(CSC(=S)N3CCN(c4ccc([N+](=O)[O-])cc4)CC3)ccc2n1 | active |
| COc1ccc(N2CCN(C(=S)SCc3ccc4nc(N)nc(N)c4c3)CC2)cc1 | active |
| O=c1[nH]cc(F)c(=O)[nH]1 [FLUOROURACIL] | inactive |

[Q] Look up the recorded call for `Nc1nc(N)c2cc(CSC(=S)N3CCN(c4ccc(F)cc4)CC3)ccc2n1` in this test.
[A] active

----------
In this section we review reported IC50 values for a set of molecules.
Test system: HeLa
test: Antiproliferative activity against human HeLa cells after 72 hrs by MTT assay
Format: functional, cell-based
The response must be a number in µM with no trailing unit.

Example entries begin here.
| chemSmiles | measureName | measured |
| --- | --- | --- |
| Nc1nc(N)c2cc(CSC(=S)N3CCN(c4ccccc4[N+](=O)[O-])CC3)ccc2n1 | IC50 | 4.88 |
| Nc1nc(N)c2cc(CSC(=S)N3CCN(c4ccc(Cl)c(Cl)c4)CC3)ccc2n1 | IC50 | 3.06 |

[Q] Lab note: need IC50 with HeLa for entry `Nc1nc(N)c2cc(CSC(=S)N3CCN(c4ccccn4)CC3)ccc2n1` , please look it up.
[A] 5.09
